- experimental.target: Recombinant human PAD2 (residues 1-665) (Homo sapiens, UniProt Q9Y2J8)
- Construct: Recombinant human PAD2 (residues 1-665) was expressed in baculovirus-infected Sf9 insect cells; 6His-FLAG (N); made in house; host or cells: baculovirus-infected Sf9 insect cells
- Sequence (Q9Y2J8 whole entry, the tested form may be a part): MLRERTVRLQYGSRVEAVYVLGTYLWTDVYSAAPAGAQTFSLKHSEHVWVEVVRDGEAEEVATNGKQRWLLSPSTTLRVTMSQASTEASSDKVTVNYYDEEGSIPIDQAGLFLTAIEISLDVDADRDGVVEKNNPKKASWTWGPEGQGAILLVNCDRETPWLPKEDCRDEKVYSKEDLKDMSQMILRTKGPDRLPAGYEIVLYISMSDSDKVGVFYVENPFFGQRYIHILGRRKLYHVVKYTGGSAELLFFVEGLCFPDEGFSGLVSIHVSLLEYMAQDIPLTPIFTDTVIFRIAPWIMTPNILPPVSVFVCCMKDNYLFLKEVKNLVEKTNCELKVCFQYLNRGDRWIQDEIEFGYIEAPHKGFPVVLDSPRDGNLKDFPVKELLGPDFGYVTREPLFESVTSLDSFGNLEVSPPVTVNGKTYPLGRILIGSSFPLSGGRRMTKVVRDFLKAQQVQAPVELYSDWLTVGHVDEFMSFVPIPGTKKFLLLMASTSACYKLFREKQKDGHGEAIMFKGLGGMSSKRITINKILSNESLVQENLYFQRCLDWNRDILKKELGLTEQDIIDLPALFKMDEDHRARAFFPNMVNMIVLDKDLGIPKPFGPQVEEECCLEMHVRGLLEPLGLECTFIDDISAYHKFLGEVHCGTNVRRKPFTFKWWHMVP
- assay.comment: PAD2 enzyme assay (FLINT NH3 release, BAEE substrate)
- Format: biochemical
- settings: PAD2 enzyme assay above or similar assays; to assess selectivity for PAD4 over PAD2; read-out: mean pIC50 (converted)
Below: a set of entries, each annotated with reported IC50.

Take a look at these entries with their results.
compound: Cn1cc(Cn2c(-c3nc4cc(C(=O)N5CCC[C@@H](N)C5)ccc4n3C)cc3ccccc32)cn1 [Example 20a]
IC50: ≥ 10 µM
//
compound: COc1cc(C(=O)N2CC[C@H](O)[C@H](N)C2)cc2nc(-c3cc4ccccc4n3CC(F)(F)F)n(C)c12 [Example 59]
IC50: ≥ 10 µM
//
compound: CCn1c(-c2nc3cc(C(=O)N4CCC[C@@H](N)C4)cc(NC)c3n2C)cc2ccccc21 [Example 68]
IC50: > 79.4 µM
//
compound: CCn1c(-c2nc3cc(C(=O)N4CCC[C@@H](N)C4)ccc3n2CCN)cc2ccccc21 [Example 48]
IC50: ≥ 10 µM
//
compound: CCn1c(-c2nc3cc(C(=S)N4CCC[C@@H](N)C4)ccc3n2C)cc2ccccc21 [Example 135]
IC50: ≥ 10 µM
//
compound: CCn1c(-c2nc3cc(C(=O)N4C[C@H](C)C[C@H](N)C4)ccc3n2C)cc2ccccc21 (single isomer, unassigned) [Example 124]
IC50: > 79.4 µM

## Task Item CC(C)Cn1c(-c2nc3cc(C(=O)N4CCC[C@@H](N)C4)ccc3n2C)cc2ccccc21 [Example 19] : provide IC50
## Result ≥ 10 µM
